Ref: ChEMBL document CHEMBL1124029

Hi there, I'd appreciate the recorded MIC for every entry that follows.
# Tested on: Semliki Forest virus
# test-protocol: Minimum inhibitory concentration required to reduce virus induced forest virus in Vero B cell cultures
# Assay type: functional

- Cl.Cl.Cn1cc(NC(=O)c2cc(NC(=O)CNC(=N)N)cn2C)cc1C(=O)NCCC(=N)N: > 200 µg/mL
- Cl.Cn1cc(NC(=O)c2cc(NC(=O)C3CC3)cn2C)cc1C(=O)NCCC(=N)N: > 100 µg/mL
- CC[N+](CC)(CC)CC.Cn1cc(NC(=O)c2cc(NC(=O)C(Cl)Cl)cn2C)cc1C(=O)NCCC(=N)N.O=S(=O)([O-])O: > 100 µg/mL
- Cl.Cl.Cn1cc(NC(=O)c2cc(NC(=O)c3cc(NC=O)cn3C)cn2C)cc1C(=O)NCCC(=N)N: > 200 µg/mL
- Cl.Cn1cc(NC(=O)c2cc(NC(=O)CF)cn2C)cc1C(=O)NCCC(=N)N: > 200 µg/mL

List reported MIC for each of these compounds:
1. Cl.Cn1cc(NC(=O)c2cc(NC(=O)C(Cl)(Cl)Cl)cn2C)cc1C(=O)NCCC(=N)N
2. Cl.Cn1cc(NC(=O)c2cc(NC(=O)CCl)cn2C)cc1C(=O)NCCC(=N)N

["> 100 µg/mL", "> 100 µg/mL"]

----------
# Test system: Raji
# test-protocol: Inhibition of proliferation of Human B Lymphoblast (Raji) cells was measured
# Assay type: functional
# test-settings: read-out: ID50 (the source's name)
Could you please report measured IC50 for the items listed next?
Numbers only, in µg/mL.

Illustrative cases are given below, each with its answer.
- Cl.Cn1cc(NC(=O)c2cc(NC(=O)C3CC3)cn2C)cc1C(=O)NCCC(=N)N: 26.7
- Cl.Cn1cc(NC(=O)c2cc(NC(=O)CCl)cn2C)cc1C(=O)NCCC(=N)N: 3.09

Could you please provide reported IC50 for "Cl.Cn1cc(NC(=O)c2cc(NC(=O)C(Cl)(Cl)Cl)cn2C)cc1C(=O)NCCC(=N)N" ? Thanks! 68.7

----------
# System: L1210
# test-protocol: Inhibition of proliferation of Murine Leukemia (L1210) cells was measured
# Type: functional
# test-settings: Mus musculus, read-out: ID50 (the source's name)
property-measured: IC50

Reference set, count: 2
* Cl.Cn1cc(NC(=O)c2cc(NC(=O)C3CC3)cn2C)cc1C(=O)NCCC(=N)N | > 100 µg/mL
* CC[N+](CC)(CC)CC.Cn1cc(NC(=O)c2cc(NC(=O)C(Cl)Cl)cn2C)cc1C(=O)NCCC(=N)N.O=S(=O)([O-])O | > 100 µg/mL

Read off the recorded IC50 for "Cl.Cn1cc(NC(=O)c2cc(NC(=O)CCCCl)cn2C)cc1C(=O)NCCC(=N)N" > 100 µg/mL
